- assay_system: Vasopressin V2 (Rattus norvegicus, UniProt Q00788)
- Sequence (Q00788 whole entry): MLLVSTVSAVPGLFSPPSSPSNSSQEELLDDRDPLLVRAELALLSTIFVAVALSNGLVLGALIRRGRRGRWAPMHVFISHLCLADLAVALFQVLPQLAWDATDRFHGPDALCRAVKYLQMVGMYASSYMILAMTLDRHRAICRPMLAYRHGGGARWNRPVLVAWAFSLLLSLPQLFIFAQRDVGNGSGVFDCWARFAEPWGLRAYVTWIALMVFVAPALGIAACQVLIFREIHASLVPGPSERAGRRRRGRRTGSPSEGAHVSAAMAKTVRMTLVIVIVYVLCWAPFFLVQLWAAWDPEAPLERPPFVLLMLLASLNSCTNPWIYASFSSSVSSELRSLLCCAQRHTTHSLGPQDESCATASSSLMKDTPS
- measurement_protocol: Vasopressin V2 agonist effects in normal conscious water-loaded rats
- Type: in vivo
- Design: from tissue; host or cells: whole living Sprague-Dawley rat; the receptor is the animal's own (renal, by own knowledge)
- assay_conditions: Sprague-Dawley (CD) rats, 10 mg/kg oral, change in osmolality as percent of control
Measured Osmolality (% Increase) values are reported for all entries that follow.
Give just the numeric value; % need not be written.

A selection of reference data follows.
Quote Osmolality (% Increase) reported for Cc1n[nH]c(-c2ccc(C(=O)N3Cc4cccn4Cc4ccccc43)cc2)n1 [Example 50] please. 223

Quote Osmolality (% Increase) reported for O=C(c1ccc(-n2cccn2)nc1Cl)N1Cc2cccn2Cc2ccccc21 [Example 99] please. 205

Quote Osmolality (% Increase) reported for Cc1ccn(-c2ccc(C(=O)N3Cc4ccc(Br)n4Cc4ccccc43)c(Cl)c2)n1 [Example 88] please. 226

Quote Osmolality (% Increase) reported for Cc1ccnn1-c1ccc(C(=O)N2Cc3cccn3Cc3ccccc32)c(Cl)c1 [Example 9B] please. 168

Quote Osmolality (% Increase) reported for Cc1ccn(-c2ccc(C(=O)N3Cc4cccn4Cc4ccccc43)c(Br)c2)n1 [Example 90] please. 413

Others:
Quote Osmolality (% Increase) reported for O=C(c1ccc(-n2ccc(C3CC3)n2)cc1C(F)(F)F)N1Cc2cccn2Cc2ccccc21 [Example 5] please. 231

Quote Osmolality (% Increase) reported for O=C(c1ccc(-c2ncn[nH]2)cc1Cl)N1Cc2cccn2Cc2ccccc21 [Example 83] please. 442

Quote Osmolality (% Increase) reported for NC(=O)c1ccc(C(=O)N2Cc3cccn3Cc3ccccc32)c(Cl)c1 [Example 79] please. 123

---

- assay_system: Vasopressin V2 (Rattus norvegicus)
- measurement_protocol: Vasopressin V2 agonist effects in normal conscious water-loaded rats
- Format: in vivo
- Parameters: from tissue; host or cells: whole living Sprague-Dawley rat; the receptor is the animal's own (renal, by own knowledge)
- assay_conditions: Sprague-Dawley (CD) rats, 10 mg/kg oral, vs. control, urine collected four hours
Measured Urine Volume (% decrease) values are reported for all entries that follow.
Include the unit after the number when you answer.

A selection of reference data follows.
Give measured Urine Volume (% decrease) for Cc1n[nH]c(-c2ccc(C(=O)N3Cc4cccn4Cc4ccccc43)c(Cl)c2)n1 [Example 81] (Vasopressin V2 (Rattus norvegicus)). 82%

Give measured Urine Volume (% decrease) for O=C(c1ccc(-n2cccn2)cc1)N1Cc2cccn2Cc2ccccc21 [Example 58] (Vasopressin V2 (Rattus norvegicus)). 49%

Here is the next item to consider.
Give measured Urine Volume (% decrease) for O=C(c1ccc(-n2ccc(C(F)(F)F)n2)cc1Cl)N1Cc2cccn2Cc2ccccc21 [Example 13] (Vasopressin V2 (Rattus norvegicus)). 50%

---

Measured melting point values are reported for all entries that follow.

A selection of reference data follows.
Quote melting point reported for O=C(c1ccc(-n2cccn2)nc1Cl)N1Cc2cccn2Cc2ccccc21 please. 133 to 135 °C

Quote melting point reported for O=C(O)c1ccc(C(=O)N2Cc3cccn3Cc3ccccc32)c(Cl)c1 please. 198 to 199 °C

Quote melting point reported for O=C(c1ccc(-c2ncn[nH]2)cc1Cl)N1Cc2cccn2Cc2ccccc21 please. 174 to 177 °C

Quote melting point reported for Cc1ncn(-c2ccc(C(=O)N3Cc4cccn4Cc4ccccc43)c(Cl)c2)n1 please. 191 to 193 °C

Quote melting point reported for Cc1cn(-c2ccc(C(=O)N3Cc4cccn4Cc4ccccc43)cc2)cn1 please. 140 to 145 °C

Others:
Quote melting point reported for O=C(c1ccc(-c2ccn(C(=O)c3ccc(F)cc3Cl)n2)cc1)N1Cc2cccn2Cc2ccccc21 please. 150 to 157 °C

Quote melting point reported for Cc1noc(-c2ccc(C(=O)N3Cc4cccn4Cc4ccccc43)cc2)n1 please. 177 to 179 °C

Quote melting point reported for O=C(c1ccc(-c2ncn[nH]2)cc1)N1Cc2cccn2Cc2ccccc21 please. 225 to 227 °C

Quote melting point reported for CC(=O)c1ccc(C(=O)N2Cc3cccn3Cc3ccccc32)c(Cl)c1 please. 98 to 100 °C

# credit: patent US6831079B1
